- Test system: Phytophthora capsici
- methodDescription: Fungitoxicity of copper-hydrazone mixtures of different ratios towards Phytophthora capsici (Example 36, Table 12)
- Type: cell-based
- setupConditions: Phytophthora capsici, Hydrazone:Cu ratio 1 to 16; read-out: Hydrazone EC50 (amount of hydrazone in mixture at EC50)
propertyLabel: EC50 (µM)
Report only the number, with the unit µM understood.

Given the entry O=C(N/N=C/c1cc(Cl)cc(Cl)c1O)c1ccccc1 , what EC50 was observed with Phytophthora capsici? 0.0275

----------
propertyLabel: melting point

Quick check: melting point of Cc1ccc(C(=O)N/N=C/c2cc(Cl)ccc2O)c(O)c1 ? 282 to 286 °C

Next up: C/C(=N\NC(=O)c1cccc(Cl)c1O)c1cc(Cl)cc(Cl)c1O 260 to 262 °C

Next up: COc1ccc(/C(C)=N/NC(=O)c2cccc(C)c2)c(O)c1 184 to 185 °C

Next up: O=C(N/N=C/c1cc(Cl)cc(Br)c1O)c1cc(Cl)ccc1Cl 169 to 173 °C

Next up: Cc1ccc(C(=O)N/N=C/c2c(C(F)(F)F)ccc(Cl)c2O)c(O)c1 258 to 260 °C

Next up: O=C(N/N=C/c1cccc(C(F)(F)F)c1O)c1ccccc1C(F)(F)F 169 to 171 °C

Next up: Cc1ccc(C(=O)N/N=C/c2cc(Cl)cc(Br)c2O)cc1 279 to 282 °C

Next up: COc1cccc(C(=O)N/N=C/c2cc(Cl)ccc2O)c1C 122 to 128 °C

Next up: O=C(N/N=C/c1cc(Cl)c(Cl)cc1O)c1ccccc1 238 to 241 °C

Next up: C/C(=N\NC(=O)c1cccc(C)c1)c1ccc(Cl)cc1O 210 to 211 °C

Next up: COc1ccc(/C(C)=N/NC(=O)c2ccccc2)c(O)c1 211 to 213 °C

Next up: COc1cc(O)c(/C(C)=N/NC(=O)c2ccc(Br)cc2)c(OC)c1 134 to 159 °C

Next up: Cc1ccc(C(=O)N/N=C/c2c(O)cccc2Cl)cc1 250 to 252 °C

Next up: COc1cccc(/C(C)=N/NC(=O)c2ccccc2Cl)c1O 233 to 234 °C

Next up: O=C(N/N=C/c1cc(Cl)cc(Cl)c1O)c1ccc(C(F)(F)F)cc1 238 to 240 °C

Next up: C/C(=N\NC(=O)c1ccccc1C)c1ccc(Cl)cc1O 214 to 215 °C

Next up: C/C(=N\NC(=O)c1ccccc1O)c1cc(Cl)ccc1O 298 to 318 °C

Next up: C/C(=N\NC(=O)c1ccccc1Br)c1cc(Br)ccc1O 216 to 218 °C

Next up: COc1ccc(C(=O)N/N=C(\C)c2cc(C(F)(F)F)ccc2O)cc1 228 to 231 °C

Next up: Cc1cc(C)cc(C(=O)N/N=C/c2cc(Br)cc(Br)c2O)c1 209 to 211 °C

Next up: O=C(N/N=C/c1cc(C(F)(F)F)ccc1O)c1cccc([N+](=O)[O-])c1 218 to 220 °C

Next up: C/C(=N\NC(=O)c1ccc(Br)cc1)c1cc(Br)ccc1O 270 to 275 °C

Next up: O=C(N/N=C/c1cc(C(F)(F)F)ccc1O)c1ccc([N+](=O)[O-])cc1 259 to 265 °C

Next up: O=C(N/N=C/c1cccc(Cl)c1O)c1cccc(F)c1 178 to 184 °C

Next up: C/C(=N\NC(=O)c1ccccc1O)c1cc(Br)cc(Br)c1O 305 to 306 °C

Next up: O=C(N/N=C/c1cc(C(F)(F)F)cc(Cl)c1O)c1cccc([N+](=O)[O-])c1 237 to 238 °C

Next up: O=C(N/N=C/c1cc(Cl)cc(Cl)c1O)c1cccc(C(F)(F)F)c1 165 to 169 °C

Next up: Cc1cccc(/C=N/NC(=O)c2ccccc2)c1O 186 to 188 °C

meta.source: patent US20120010075A1
